Hello, the source for this data is patent US12257247B2, in case you need it.

DC50 values for the compounds below.
Target: VAV1 (Homo sapiens, UniProt P15498+Q96SW2)
Construct: A heterozygous VAV1 C-terminal HiBiT knock-in pool was generated at Monte Rosa Therapeutics from a clonal Jurkat cell; endogenous in cells; host or cells: Jurkat clone stably expressing LgBiT, homozygous GSPT1-G575N; heterozygous VAV1-HiBiT knock-in pool
Test: VAV1 degradation activity, VAV1-HiBiT knock-in Jurkat luminescence assay (Example A, Table 1)
Type: cell-based
Details: VAV1-HiBiT knock-in Jurkat cells, luminescence read at 6 and 24 hours; read-out: VAV1 DC50

compound | output unit | DC50
CC1CCCC(=O)N1c1ccc(-c2cccc(C3CCC(=O)NC3=O)c2Cl)cc1 (centres unmarked) | nM | 5.14
CN1CCCN(Cc2ncc(-c3cccc(C4CCC(=O)NC4=O)c3Cl)cc2F)C1=O (centres unmarked) | nM | 113
O=C1CCC(c2cccc(-c3ccc(N4C(=O)NCCC45CCC5)cc3)c2Cl)C(=O)N1 (centres unmarked) | nM | 2.21
O=C1CCC(c2cccc(-c3ccc(-c4cccn(CC(F)(F)F)c4=O)cc3)c2Cl)C(=O)N1 (centres unmarked) | nM | 4.79
O=C1CCC(c2cccc(-c3ccc(CN4CCc5ocnc5C4=O)cc3)c2Cl)C(=O)N1 (centres unmarked) | nM | 54.8
CN1CCCN(c2ccc(-c3cccc(C4CCC(=O)NC4=O)c3Cl)cn2)C1=O (centres unmarked) | nM | 330
O=C1CCC(c2cccc(-c3ccc(N4C(=O)OCCC45CC5)nc3)c2Cl)C(=O)N1 (centres unmarked) | nM | 82.5
O=C1CCC(c2cccc(-c3ccc(Cc4ccon4)cc3)c2Cl)C(=O)N1 (centres unmarked) | nM | 15.2

----------
Target: VAV1 (Homo sapiens, UniProt P15498+Q96SW2)
Construct: A heterozygous VAV1 C-terminal HiBiT knock-in pool was generated at Monte Rosa Therapeutics from a clonal Jurkat cell; endogenous in cells; host or cells: Jurkat clone stably expressing LgBiT, homozygous GSPT1-G575N; heterozygous VAV1-HiBiT knock-in pool
Experiment: VAV1 degradation activity, VAV1-HiBiT knock-in Jurkat luminescence assay (Example A, Table 1)
Assay type: cell-based
Conditions: VAV1-HiBiT knock-in Jurkat cells, luminescence read at 6 and 24 hours; read-out: VAV1 DC50 (nM), class

compound | tested target | DC50
CN1CCCN(c2ncc(-c3cccc(C4CCC(=O)NC4=O)c3Cl)cc2F)C1=O (centres unmarked) | VAV1 (Homo sapiens, UniProt P15498+Q96SW2) | 100 to 1000 nM
O=C1CCC(c2cccc(-c3ccc(N4CCCOC4=O)nc3)c2Cl)C(=O)N1 (centres unmarked) | VAV1 (Homo sapiens, UniProt P15498+Q96SW2) | 100 to 1000 nM
CCNc1ccc(-c2cccc(C3CCC(=O)NC3=O)c2Cl)cc1 (centres unmarked) | VAV1 (Homo sapiens, UniProt P15498+Q96SW2) | 100 to 1000 nM
CN1CCC(C)(C)N(c2ccc(-c3cccc(C4CCC(=O)NC4=O)c3Cl)cc2)C1=O (centres unmarked) | VAV1 (Homo sapiens, UniProt P15498+Q96SW2) | ≤ 100 nM
O=C1CCC(c2cccc(-c3ccc(-c4cccc5ocnc45)cc3)c2Cl)C(=O)N1 (centres unmarked) | VAV1 (Homo sapiens, UniProt P15498+Q96SW2) | 100 to 1000 nM
Cn1ccc(Cn2c(=O)n(C)c3cc(-c4cccc(C5CCC(=O)NC5=O)c4Cl)ccc32)n1 (centres unmarked) | VAV1 (Homo sapiens, UniProt P15498+Q96SW2) | ≤ 100 nM
O=C1CCC(c2cccc(-c3ccc(S(=O)(=O)N4CCCC4)cc3)c2Cl)C(=O)N1 (centres unmarked) | VAV1 (Homo sapiens, UniProt P15498+Q96SW2) | ≤ 100 nM
O=C1CCC(c2cccc(-c3ccc(N4CCCCC4=O)c(F)c3)c2Cl)C(=O)N1 (centres unmarked) | VAV1 (Homo sapiens, UniProt P15498+Q96SW2) | ≤ 100 nM

----------
Molecular target: VAV1 (Homo sapiens, UniProt P15498+Q96SW2)
Construct: A heterozygous VAV1 C-terminal HiBiT knock-in pool was generated at Monte Rosa Therapeutics from a clonal Jurkat cell; endogenous in cells; host or cells: Jurkat clone stably expressing LgBiT, homozygous GSPT1-G575N; heterozygous VAV1-HiBiT knock-in pool
Experiment: VAV1 degradation activity, VAV1-HiBiT knock-in Jurkat luminescence assay (Example A, Table 1)
Assay type: cell-based
Conditions: Jurkat, VAV1-HiBiT knock-in Jurkat cells, luminescence read at 6 and 24 hours; read-out: VAV1 Dmax %
measure: Dmax (%)

molecule | tested target | measure | endpoint value
O=C1CCC(c2cccc(-c3cnc(-n4ccccc4=O)c(F)c3)c2Cl)C(=O)N1 (centres unmarked) | VAV1 (Homo sapiens, UniProt P15498+Q96SW2) | Dmax | 79.6
Cc1cc(-c2cccc(C3CCC(=O)NC3=O)c2Cl)ccc1OCCN1CCOCC1 (centres unmarked) | VAV1 (Homo sapiens, UniProt P15498+Q96SW2) | Dmax | 92.7
O=C1CCC(c2cccc(-c3ccc(N4CCn5nccc5C4=O)cc3)c2Cl)C(=O)N1 (centres unmarked) | VAV1 (Homo sapiens, UniProt P15498+Q96SW2) | Dmax | 88.1
C[C@@H]1CCC(=O)N1c1ccc(-c2cccc(C3CCC(=O)NC3=O)c2Cl)cc1 (some centres unmarked) | VAV1 (Homo sapiens, UniProt P15498+Q96SW2) | Dmax | 93.5
O=C1CCC(c2cccc(-c3ccc(-n4cccc(CC(F)F)c4=O)cc3)c2Cl)C(=O)N1 (centres unmarked) | VAV1 (Homo sapiens, UniProt P15498+Q96SW2) | Dmax | 97.7
O=C1CCC(c2cccc(-c3ccc4c(c3)CCCO4)c2Cl)C(=O)N1 (centres unmarked) | VAV1 (Homo sapiens, UniProt P15498+Q96SW2) | Dmax | 96.5
COc1cnc(Cc2ccc(-c3cccc(C4CCC(=O)NC4=O)c3Cl)cc2)nc1 (centres unmarked) | VAV1 (Homo sapiens, UniProt P15498+Q96SW2) | Dmax | 98.4
O=C1CCC(c2cccc(-c3ccc(CN4CCOC4=O)cc3)c2Cl)C(=O)N1 (centres unmarked) | VAV1 (Homo sapiens, UniProt P15498+Q96SW2) | Dmax | 81.2
Cn1ccc(COc2ccc(-c3cccc(C4CCC(=O)NC4=O)c3)cc2)n1 (centres unmarked) | VAV1 (Homo sapiens, UniProt P15498+Q96SW2) | Dmax | 39.8
O=C1CCC(c2cccc(-c3ccc(-n4cccnc4=O)cc3)c2Cl)C(=O)N1 (centres unmarked) | VAV1 (Homo sapiens, UniProt P15498+Q96SW2) | Dmax | 92.8
O=C1CCC(c2cccc(-c3ccc(CN4CCCC4=O)cc3)c2Cl)C(=O)N1 (centres unmarked) | VAV1 (Homo sapiens, UniProt P15498+Q96SW2) | Dmax | 87.5
CC1(C)CCCC(=O)N1c1ccc(-c2cccc(C3CCC(=O)NC3=O)c2Cl)cc1 (centres unmarked) | VAV1 (Homo sapiens, UniProt P15498+Q96SW2) | Dmax | 98.2
Cn1cnc(Cc2ccc(-c3cccc(C4CCC(=O)NC4=O)c3Cl)cc2)c1 (centres unmarked) | VAV1 (Homo sapiens, UniProt P15498+Q96SW2) | Dmax | 96
O=C1CCC(c2cccc(-c3ccc(CC(=O)N4CCCC4)cc3)c2Cl)C(=O)N1 (centres unmarked) | VAV1 (Homo sapiens, UniProt P15498+Q96SW2) | Dmax | 97.1
O=C1CCC(c2cccc(-c3ccc(N4CCCCC4)cc3)c2Cl)C(=O)N1 (centres unmarked) | VAV1 (Homo sapiens, UniProt P15498+Q96SW2) | Dmax | 84.4
COc1cc(-c2cccc(C3CCC(=O)NC3=O)c2Cl)ccc1C(F)F (centres unmarked) | VAV1 (Homo sapiens, UniProt P15498+Q96SW2) | Dmax | 75.9
N#Cc1cc(-c2cccc(C3CCC(=O)NC3=O)c2Cl)ccc1O (centres unmarked) | VAV1 (Homo sapiens, UniProt P15498+Q96SW2) | Dmax | 78.2

----------
Biological target: VAV1 (Homo sapiens, UniProt P15498+Q96SW2)
Construct: A heterozygous VAV1 C-terminal HiBiT knock-in pool was generated at Monte Rosa Therapeutics from a clonal Jurkat cell; endogenous in cells; host or cells: Jurkat clone stably expressing LgBiT, homozygous GSPT1-G575N; heterozygous VAV1-HiBiT knock-in pool
Assay: VAV1 degradation activity, VAV1-HiBiT knock-in Jurkat luminescence assay (Example A, Table 1)
Type: cell-based
Settings: Jurkat, VAV1-HiBiT knock-in Jurkat cells, luminescence read at 6 and 24 hours; read-out: VAV1 Dmax %, class
Dmax values for the molecules below.

molecule | Dmax
O=C1CCC(c2cccc(-c3ccc(N4Cc5ncccc5C4=O)cc3)c2Cl)C(=O)N1 (stereo not shown) | < 60%
Cn1cnc(COc2ccc(-c3cccc(C4CCC(=O)NC4=O)c3Cl)cc2)c1 (stereo not shown) | > 90%
CC1(C)CCCC(=O)N1Cc1ccc(-c2cccc(C3CCC(=O)NC3=O)c2Cl)cc1 (stereo not shown) | > 90%
O=C1CCC(c2cccc(-c3ccc(Cc4ccncn4)cc3)c2Cl)C(=O)N1 (stereo not shown) | > 90%
O=C1CCC(c2cccc(-c3ccc(Cc4cccnc4)cc3)c2Cl)C(=O)N1 (stereo not shown) | > 90%
O=C1CCC(c2cccc(-c3ccc(Cn4cccn4)cc3)c2Cl)C(=O)N1 (stereo not shown) | > 90%
Cn1ccc(COc2ccc(-c3c(C#N)ccc(C4CCC(=O)NC4=O)c3Cl)cc2)n1 (stereo not shown) | < 60%
O=C1CC[C@](F)(c2cccc(-c3ccc(N4CCCCC4=O)cc3)c2Cl)C(=O)N1 (single isomer, unassigned) | > 90%
O=C1CCC(c2cccc(-c3ccc(CN4CCC5CC5C4=O)cc3)c2Cl)C(=O)N1 (stereo not shown) | > 90%
CC(C)(c1ccc(-c2cccc(C3CCC(=O)NC3=O)c2Cl)cc1)N1CCCCC1=O (stereo not shown) | 60 to 90%
O=C1CCC(c2cccc(-c3ccc(-n4cccc(CC(F)(F)F)c4=O)cc3)c2Cl)C(=O)N1 (stereo not shown) | > 90%
O=C1CCC(c2cccc(-c3ccc(C4(N5CCCCC5=O)CC4)cc3)c2Cl)C(=O)N1 (stereo not shown) | < 60%
CN1CC(=O)N(c2ccc(-c3cccc(C4CCC(=O)NC4=O)c3Cl)cc2)c2cccnc21 (stereo not shown) | > 90%
Cn1ccc(Cc2nn(C)c3cc(-c4cccc(C5CCC(=O)NC5=O)c4Cl)ccc23)n1 (stereo not shown) | > 90%
O=C1CCC(c2cccc(-c3ccc(N4C(=O)CCCC45CC5)nc3)c2Cl)C(=O)N1 (stereo not shown) | 60 to 90%
O=C1CCC(c2cccc(-c3ccc(N4CCn5cncc5C4=O)cc3)c2Cl)C(=O)N1 (stereo not shown) | 60 to 90%
